Assay: Pharmacokinetic study of orally administered florfenicol in chicken
Format: in vivo
Settings: female, HY-Line Brown, plasma, po, 20 mg/kg
readout kind: half-life (h)
The reply should be a number in h, with the unit left off.

Quick one: half-life for `CS(=O)(=O)c1ccc([C@@H](O)[C@@H](CF)NC(=O)C(Cl)Cl)cc1` ?
2.13

====

Experiment: Pharmacokinetic study of orally administered florfenicol in chicken
Format: in vivo
Settings: female, HY-Line Brown, plasma, po, 20 mg/kg
readout kind: Vd/F (L/kg)
Report as a plain number; the unit L/kg is understood.

Any idea what Vd/F was measured for `CS(=O)(=O)c1ccc([C@@H](O)[C@@H](CF)NC(=O)C(Cl)Cl)cc1` ?
0.24
